target: Macrophage-stimulating protein receptor (Homo sapiens, UniProt Q04912)
Sequence (Q04912 25-304 limits assumed): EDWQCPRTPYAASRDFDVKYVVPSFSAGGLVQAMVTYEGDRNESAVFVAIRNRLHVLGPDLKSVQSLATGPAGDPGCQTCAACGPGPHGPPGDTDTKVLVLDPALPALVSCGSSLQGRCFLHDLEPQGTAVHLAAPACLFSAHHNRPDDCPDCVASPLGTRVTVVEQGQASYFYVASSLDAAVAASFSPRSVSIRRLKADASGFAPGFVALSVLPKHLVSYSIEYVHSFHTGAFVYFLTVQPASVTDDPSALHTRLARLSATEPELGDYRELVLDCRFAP
Sequence (Q04912 310-1400 limits assumed): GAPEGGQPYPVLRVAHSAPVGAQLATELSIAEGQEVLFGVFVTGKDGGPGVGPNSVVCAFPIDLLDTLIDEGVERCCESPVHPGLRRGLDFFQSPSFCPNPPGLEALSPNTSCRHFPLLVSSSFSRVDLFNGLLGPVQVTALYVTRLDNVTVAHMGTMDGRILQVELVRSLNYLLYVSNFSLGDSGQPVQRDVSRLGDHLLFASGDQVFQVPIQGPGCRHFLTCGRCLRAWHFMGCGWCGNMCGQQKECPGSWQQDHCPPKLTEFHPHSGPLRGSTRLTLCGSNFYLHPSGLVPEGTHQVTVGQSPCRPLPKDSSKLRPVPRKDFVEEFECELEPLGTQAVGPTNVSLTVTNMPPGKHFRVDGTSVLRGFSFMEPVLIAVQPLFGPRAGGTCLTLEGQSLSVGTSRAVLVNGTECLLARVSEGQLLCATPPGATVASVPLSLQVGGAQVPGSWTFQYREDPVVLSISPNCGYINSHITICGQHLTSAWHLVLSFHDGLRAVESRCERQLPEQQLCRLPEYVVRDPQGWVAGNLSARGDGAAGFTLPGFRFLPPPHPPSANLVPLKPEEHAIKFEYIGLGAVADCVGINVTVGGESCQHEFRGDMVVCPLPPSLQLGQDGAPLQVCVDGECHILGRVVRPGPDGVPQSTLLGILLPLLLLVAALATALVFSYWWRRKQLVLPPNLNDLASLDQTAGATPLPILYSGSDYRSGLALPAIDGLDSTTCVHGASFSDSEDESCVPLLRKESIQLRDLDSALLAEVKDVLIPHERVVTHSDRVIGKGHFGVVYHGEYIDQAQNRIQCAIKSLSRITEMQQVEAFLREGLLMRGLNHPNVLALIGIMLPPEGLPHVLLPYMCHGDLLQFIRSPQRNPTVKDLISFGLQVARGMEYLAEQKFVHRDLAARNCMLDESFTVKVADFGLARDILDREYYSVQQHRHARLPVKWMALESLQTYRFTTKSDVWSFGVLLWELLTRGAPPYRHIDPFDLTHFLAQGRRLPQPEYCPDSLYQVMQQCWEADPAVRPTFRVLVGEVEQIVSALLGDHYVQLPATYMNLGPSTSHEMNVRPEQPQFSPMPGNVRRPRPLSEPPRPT
readout name: IC50 (nM)
Write the answer as a number in nM, unit excluded.

Fill blank: measured IC50 of the molecule COc1cc2c(Oc3ccc(NC(=O)c4cn(-c5ccccc5Cl)nn4)cc3F)ccnc2cc1OCCCN1CCCCC1 is ____.
346
